target: NUAK2 (human) (UniProt Q9H093); assay: radiometric filter-binding kinase assay, Kinase HotSpot; settings: compound 0.5 µM; ATP 10 µM
Sequence (Q9H093 whole entry, looked up): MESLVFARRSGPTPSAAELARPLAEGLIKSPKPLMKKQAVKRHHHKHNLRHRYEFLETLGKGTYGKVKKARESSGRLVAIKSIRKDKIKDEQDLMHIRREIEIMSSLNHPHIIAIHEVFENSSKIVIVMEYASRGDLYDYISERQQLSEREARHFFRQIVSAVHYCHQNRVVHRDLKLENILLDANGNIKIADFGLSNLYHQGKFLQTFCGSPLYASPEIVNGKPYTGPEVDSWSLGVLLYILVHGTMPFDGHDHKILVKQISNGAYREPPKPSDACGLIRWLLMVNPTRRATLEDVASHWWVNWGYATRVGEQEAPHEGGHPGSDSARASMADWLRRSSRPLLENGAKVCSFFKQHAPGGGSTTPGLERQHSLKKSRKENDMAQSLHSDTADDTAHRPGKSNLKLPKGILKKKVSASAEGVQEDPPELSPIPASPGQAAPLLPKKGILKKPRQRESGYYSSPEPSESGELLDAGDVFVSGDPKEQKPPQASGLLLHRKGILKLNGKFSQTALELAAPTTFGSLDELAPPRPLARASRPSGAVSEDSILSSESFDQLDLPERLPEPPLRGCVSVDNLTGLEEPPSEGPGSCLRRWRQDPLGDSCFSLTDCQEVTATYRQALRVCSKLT

{"smiles_repr": "Cn1c2ccccc2c2c3c(c4c5ccccc5n(CCC#N)c4c21)CNC3=O", "residual activity": "40.5%"}
{"smiles_repr": "CN(C)S(=O)(=O)c1ccc2c(c1)/C(=C/c1cc3c([nH]1)CCCC3)C(=O)N2", "residual activity": "95.1%"}
{"smiles_repr": "COc1ccc(Cl)cc1NC(=O)Nc1cc(C)nc2ccccc12", "residual activity": "100%"}
{"smiles_repr": "COc1ccc(C(=O)Nc2sc3c(c2C(N)=O)CCCC3)cc1OC", "residual activity": "99.5%"}
{"smiles_repr": "Cc1cncc2cccc(S(=O)(=O)N3CCCN(C(=O)CN)C[C@H]3C)c12", "residual activity": "125%"}
{"smiles_repr": "COc1cc2ncnc(Nc3ccc(OCc4ccccc4)cc3)c2cc1OC", "residual activity": "101%"}
{"smiles_repr": "CO[C@@H]1[C@H](N(C)C(=O)c2ccccc2)C[C@H]2O[C@]1(C)n1c3ccccc3c3c4c(c5c6ccccc6n2c5c31)C(=O)NC4", "residual activity": "26.2%"}
{"smiles_repr": "Ic1cccc(CSc2nnc(-c3ccncc3)o2)c1", "residual activity": "98.9%"}
{"smiles_repr": "COc1ccc2c(c1)c(C1=C(c3c[nH]c4ccccc34)C(=O)NC1=O)cn2CCCN(C)C", "residual activity": "81%"}
{"smiles_repr": "O=C1C(Cl)=C(N2C(=O)CCC2=O)C(=O)c2ccccc21", "residual activity": "86.7%"}
{"smiles_repr": "O=C1NC(=O)c2c1c1c3ccccc3[nH]c1n1cncc21", "residual activity": "80.1%"}
{"smiles_repr": "O=C(c1cc2cc(O)ccc2[nH]1)c1cc2cc(O)ccc2[nH]1", "residual activity": "95.7%"}
{"smiles_repr": "CCCCc1c(-c2ccc(OC)cc2)[nH]c2nccnc12", "residual activity": "68%"}

###

target: DAPK1 (human) (UniProt P53355); test: radiometric filter-binding kinase assay, Kinase HotSpot; conditions: compound 0.5 µM; ATP 10 µM
Sequence (P53355 whole entry, looked up): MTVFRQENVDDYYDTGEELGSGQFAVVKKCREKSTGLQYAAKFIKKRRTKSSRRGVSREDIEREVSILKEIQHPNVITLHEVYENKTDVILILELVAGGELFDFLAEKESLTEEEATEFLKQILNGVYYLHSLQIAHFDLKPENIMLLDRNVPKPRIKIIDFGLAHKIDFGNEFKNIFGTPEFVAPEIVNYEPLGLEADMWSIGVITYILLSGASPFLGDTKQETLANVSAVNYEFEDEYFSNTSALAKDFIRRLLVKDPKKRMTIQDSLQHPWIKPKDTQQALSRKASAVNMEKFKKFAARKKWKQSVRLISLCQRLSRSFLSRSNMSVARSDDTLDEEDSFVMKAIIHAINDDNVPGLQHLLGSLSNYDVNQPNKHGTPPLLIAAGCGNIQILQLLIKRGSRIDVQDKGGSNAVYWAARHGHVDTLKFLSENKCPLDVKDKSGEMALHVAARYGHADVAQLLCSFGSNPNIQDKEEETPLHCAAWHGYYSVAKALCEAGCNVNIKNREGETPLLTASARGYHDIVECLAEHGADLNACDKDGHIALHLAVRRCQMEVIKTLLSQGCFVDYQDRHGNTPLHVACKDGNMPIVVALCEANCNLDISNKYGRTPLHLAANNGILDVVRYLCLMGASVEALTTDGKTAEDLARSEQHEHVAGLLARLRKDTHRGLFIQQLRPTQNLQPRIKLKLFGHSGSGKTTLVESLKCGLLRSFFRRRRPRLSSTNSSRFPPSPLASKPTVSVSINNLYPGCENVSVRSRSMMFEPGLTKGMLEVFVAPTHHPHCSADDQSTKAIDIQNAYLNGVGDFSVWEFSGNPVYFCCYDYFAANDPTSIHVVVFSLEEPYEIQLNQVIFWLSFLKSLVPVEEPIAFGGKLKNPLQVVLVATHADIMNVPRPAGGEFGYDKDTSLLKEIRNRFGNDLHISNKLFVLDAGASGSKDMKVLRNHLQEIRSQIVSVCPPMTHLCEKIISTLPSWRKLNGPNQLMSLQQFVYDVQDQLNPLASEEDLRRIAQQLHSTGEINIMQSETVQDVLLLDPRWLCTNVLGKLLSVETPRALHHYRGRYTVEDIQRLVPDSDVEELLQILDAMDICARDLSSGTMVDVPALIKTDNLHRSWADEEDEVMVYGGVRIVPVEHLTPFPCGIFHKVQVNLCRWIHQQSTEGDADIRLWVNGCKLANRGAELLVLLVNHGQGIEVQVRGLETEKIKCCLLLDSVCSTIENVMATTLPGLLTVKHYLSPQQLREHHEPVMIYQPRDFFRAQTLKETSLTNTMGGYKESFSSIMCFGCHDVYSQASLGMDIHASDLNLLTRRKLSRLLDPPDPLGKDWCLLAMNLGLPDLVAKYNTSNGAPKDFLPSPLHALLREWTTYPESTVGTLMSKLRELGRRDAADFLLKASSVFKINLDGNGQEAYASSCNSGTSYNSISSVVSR
# Lookup of reported residual activity keyed by entry
value_type: residual activity (%)

{"smiles_repr": "Cn1c2ccccc2c2c3c(c4c5ccccc5n(CCC#N)c4c21)CNC3=O", "value_type": "residual activity", "experimental_value": 102}
{"smiles_repr": "c1ccc2c(-c3ccncc3)c[nH]c2c1", "value_type": "residual activity", "experimental_value": 97.7}
{"smiles_repr": "O=C1C(Cl)=C(N2C(=O)CCC2=O)C(=O)c2ccccc21", "value_type": "residual activity", "experimental_value": 101}
{"smiles_repr": "C[C@@H]1CCN(C(=O)CC#N)C[C@@H]1N(C)c1ncnc2[nH]ccc12", "value_type": "residual activity", "experimental_value": 109}
{"smiles_repr": "CS(=O)(=O)CCNCc1ccc(-c2ccc3ncnc(Nc4ccc(OCc5cccc(F)c5)c(Cl)c4)c3c2)o1", "value_type": "residual activity", "experimental_value": 107}
{"smiles_repr": "Cc1cncc2cccc(S(=O)(=O)N3CCCN(C(=O)CN)C[C@H]3C)c12", "value_type": "residual activity", "experimental_value": 97.9}
{"smiles_repr": "COc1ccc2c(c1)c(C1=C(c3c[nH]c4ccccc34)C(=O)NC1=O)cn2CCCN(C)C", "value_type": "residual activity", "experimental_value": 105}
{"smiles_repr": "COc1cc2ncnc(Nc3ccc(Oc4ccccc4)cc3)c2cc1OC", "value_type": "residual activity", "experimental_value": 105}
